pIC50: −log10 of the molar value.
Observed pIC50 for L-lactate dehydrogenase A chain (Homo sapiens), reported per entry below.

Solved entries (count: 2):
NS(=O)(=O)c1ccc(Cc2c(-c3cccc(C(=O)N4CCCC4)c3)nn(-c3nc(C(=O)O)cs3)c2CC2CC2)cc1 | > 7.00
NS(=O)(=O)c1ccc(Cc2c(-c3ccc(F)c(-c4cccc(F)c4)c3)nn(-c3nc(C(=O)O)cs3)c2CC2CC2)cc1F | > 7.00

Given CC(C)c1ccc(-c2cc(-c3nn(-c4nc(C(=O)O)cs4)c(CC4CC4)c3Cc3ccc(S(N)(=O)=O)c(F)c3)ccc2F)cc1 , respond with its pIC50. > 7.00
